All figures here come from patent US20250092065A1.

system: MYB; test: HiBiT protein abundance assay, MYB (K562 HiBiT knock-in); assay type: cell-based, human; conditions: HiBiT knock-in K562 cells, 24 hours, top dose 10 μM
pIC50: −log10 of the molar value. Structures can show the parent of a compound that is named as a salt.
Recorded measurements of pIC50, one per entry

Below are worked cases with known answers.
Cc1nc2cc(O)c(-c3ccc4nc(N5CCC(NCC6CC6)C5)ccc4n3)cc2o1 (single isomer, unassigned) [Compound 292]: 6.00 to 7.00
Cc1cn2cc(-c3ccc4nc(N5CCC(NC(C)(C)C)C5)ccc4n3)nc(C)c2n1 (centres unmarked): 5.00 to 6.00
Cc1nc2cc(O)c(-c3ccc4nc(N5CC[C@H](NC6CC6)C5)ncc4n3)cc2o1: 6.00 to 7.00
Cc1c(O)c(-c2ccc3cc(N4CCNC5(CC5)C4)cc(F)c3n2)cc2cn(C)nc12: > 7.00
CN[C@H]1CCN(c2ccc3nc(-c4cc(C#N)c5nc(C)cn5c4)ncc3n2)C1: 6.00 to 7.00
CNC(=O)c1nc(-c2cc3cn(C)nc3c(C)c2O)nc2ccc(N3CCC(N4CCC4)CC3)cc12: > 7.00
Cc1c(O)c(-c2nc(-c3c[nH]nn3)c3cc(N4CCNCC4)ccc3n2)cc2cn(C)nc12 [Compound 538, hydrochloride]: 5.00 to 6.00

Kindly consider the entry below.
Item `Cn1cc2cc(-c3ccc4c(F)c(C5CCNCC5)ccc4n3)c(O)cc2n1` has what recorded pIC50? > 7.00

* * *

Recorded measurements of IC50, one per entry
tested on: HTT; experiment: HiBiT protein abundance assay, HTT (K562 HiBiT knock-in); type: cell-based, human; conditions: HiBiT knock-in K562 cells, 24 hours, top dose 10 μM

Below are worked cases with known answers.
Cn1cc2cc(-c3ccc4nc(N5CC[C@H](NC6(C)CC6)C5)ccc4n3)c(O)cc2n1: < 100 nM
Cn1cc2cc(-c3ccc4nc(N5CC[C@H](NC6CC6)C5)ccc4n3)c(O)c(F)c2n1 (single isomer, unassigned): < 100 nM
Cc1c(O)c(-c2nc(N(C)C)c3cc(N4CCNCC4)ccc3n2)cc2cn(C)nc12: > 10000 nM
COCc1nc2cc(O)c(-c3ccc4nc(N5CCC(NC(C)(C)C)C5)ccc4n3)cc2o1 (stereo not shown): 100 to 1000 nM
Cn1cc2cc(-c3ccc4nc(N5CC[C@@H](NC6COC6)C5)ccc4n3)c(O)cc2n1: 100 to 1000 nM
Cc1nc2c(C)c(O)c(-c3ccc4nc(N5CC[C@@H](NC6CC6)C5)ncc4n3)cc2o1 (single isomer, unassigned): < 100 nM

Kindly consider the entry below.
Item `Cn1cc2cc(-c3ccc4cc(N5CCNCC5)cc(F)c4n3)cc(F)c2n1` has what recorded IC50? < 100 nM

* * *

system: K562 cells; assay: Cell Titer Glo 2.0 cell viability (toxicity) assay, K562; conditions: 500 cells/well, 72 hours
endpoint.label: Effect of Exemplary Compounds on Cell Viability, K562

Cc1nc2c(F)c(O)c(-c3ccc4nc(N5CC[C@@H](NC6CC6)C5)ccc4n3)cc2o1: A (A represents <100 nM)
Cc1nc2c(F)c(O)c(-c3ccc4nc(N5CC[C@H](NC6(CF)CC6)C5)ccc4n3)cc2o1 (single isomer, unassigned): A (A represents <100 nM)
Cc1nc2c(F)c(O)c(-c3ccc4nc(N5CCC(NC6CCC6)C5)ccc4n3)cc2o1 (stereo not shown): A (A represents <100 nM)
